- EXPERIMENTAL_TARGET: rat μ (C6-MOR) opioid receptor (Rattus norvegicus)
- Sequence (P33535 whole entry): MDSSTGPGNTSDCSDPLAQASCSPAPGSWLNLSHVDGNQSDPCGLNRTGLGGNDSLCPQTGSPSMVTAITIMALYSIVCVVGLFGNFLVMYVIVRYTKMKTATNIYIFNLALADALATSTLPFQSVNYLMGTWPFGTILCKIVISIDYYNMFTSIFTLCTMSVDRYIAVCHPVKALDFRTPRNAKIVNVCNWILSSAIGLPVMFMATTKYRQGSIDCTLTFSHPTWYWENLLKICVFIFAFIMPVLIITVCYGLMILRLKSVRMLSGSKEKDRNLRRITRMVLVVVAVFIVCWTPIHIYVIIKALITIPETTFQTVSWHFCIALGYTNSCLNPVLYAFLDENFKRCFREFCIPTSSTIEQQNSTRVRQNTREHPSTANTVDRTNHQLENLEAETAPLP
- ASSAY_NOTES: Stimulation of [35S]GTPγS binding, MOR
- MEASUREMENT_CONTEXT: [35S]GTPγS binding, C6-MOR membranes; mean ± standard error
What pEC50 was measured for each of the following?
pEC50 is defined as minus the log10 of a concentration measured in mol/L.

# input Lookup: pEC50 / rat μ (C6-MOR) opioid receptor (Rattus norvegicus) / Cc1cc(O)cc(C)c1C[C@H](N)C(=O)N[C@@H]1CCNc2ccc(-c3ccccc3)cc21
# output 7.93

# input Repeat with Cc1cc(O)cc(C)c1C[C@H](N)C(=O)N[C@@H]1CCNc2ccc(CN3CCC[C@H]4CCCC[C@@H]43)cc21
# output 8.91

# input Repeat with Cc1cc(O)cc(C)c1C[C@H](N)C(=O)N[C@@H]1CCNc2c(C(=O)O)cc(Cc3ccccc3)cc21
# output 8.40

# input Repeat with CCCCCCc1ccc2c(c1)[C@H](NC(=O)[C@@H](N)Cc1c(C)cc(O)cc1C)CCN2
# output 8.62

# input Repeat with Cc1cc(O)cc(C)c1C[C@H](N)C(=O)N[C@@H]1CCNc2c(C(=O)NCc3ccccc3)cc(Cc3ccccc3)cc21
# output 8.38

# input Repeat with Cc1cc(O)cc(C)c1C[C@H](N)C(=O)N[C@@H]1CCNc2ccc(CC3Cc4ccccc4C3C)cc21 (stereo partly shown)
# output 8.49

# input Repeat with COc1cc2c(cc1Cc1ccccc1)[C@H](NC(=O)[C@@H](N)Cc1c(C)cc(O)cc1C)CCN2
# output 8.10
